Reported melting point values follow for various molecules

In [3]: df
Out[3]:
                            smiles_notation         result
0            N#Cc1cc(-c2ccncc2)sc1-c1ccncc1  205 to 207 °C
1      CC(=O)c1c(-c2ccccc2)sc(-c2ccncc2)c1C  111 to 112 °C
2      O=C1CCc2c(-c3ccncc3)sc(-c3ccncc3)c21  168 to 170 °C
3             Cc1c(-c2ccncc2)oc2c1C(=O)CCC2  136 to 138 °C
4  CSc1ccc(-c2sc(-c3ccncc3)c(C)c2C(C)=O)cc1  106 to 108 °C

Consider now this further molecule.
Record request: melting point value, item O=C1CCc2c(-c3ccncc3)sc(-c3ccccc3F)c21 133 to 135 °C

* * *

// melting point lookup, one value per entry

Study these solved cases before continuing.
In [3]: df
Out[3]:
                                   compound  endpoint_label         result
0      CC(=O)c1c(CC(C)C)oc(-c2ccncc2)c1C.Cl   melting point  171 to 174 °C
1  O=S(=O)(c1cc(-c2ccncc2)sc1-c1ccncc1)N1CCCC1   melting point  193 to 195 °C
2      O=C1CCc2c(-c3ccncc3)sc(-c3cccnc3)c21   melting point  214 to 216 °C

I have this compound here, CC(=O)c1sc(-c2ccncc2)c(-c2ccncc2)c1C , and I need its recorded melting point. 140 to 142 °C

Which melting point is listed for CC(C)OC(=O)c1cc(-c2ccncc2)sc1-c1ccncc1 ? 139 to 142 °C

So what's the measured melting point for this one? COC(=O)c1cc(-c2ccncc2)sc1-c1ccncc1 133 to 135 °C

* * *

endpoint_label: melting point

The examples below pair each entry with its known result.
In [3]: df
Out[3]:
                                   compound  endpoint_label                result
0       Cc1c(-c2ccncc2)oc2c1C(=O)C(C)(C)CC2   melting point         133 to 134 °C
1  Cc1c(-c2ccncc2)sc(-c2ccncc2)c1CNO.Cl.Cl.Cl   melting point  219 to 222 °C (dec.)
2  Cc1c(-c2ccncc2)sc(-c2ccncc2)c1C(C)O (stereo not drawn)   melting point         155 to 157 °C
3  CC(=O)c1cc(-c2ccncc2)sc1Oc1cccc(Oc2ccc(F)cc2)c1.Cl   melting point         251 to 253 °C
4       CC(=O)c1c(-c2ccsc2)sc(-c2ccncc2)c1C   melting point          98 to 100 °C

Using the record for O=C1CCCc2c(-c3ccncc3)sc(-c3ccncc3)c21 , report its melting point. 157 to 160 °C

* * *

melting point values for the compounds below.

Record excerpt, results attached:
>>> print(df.to_string())
                                   compound           result
0  CC(=O)c1cc(-c2ccncc2)sc1-c1ccncc1 [Example 24, 3-Acetyl-2,5-di(4-pyridyl)thiophene]    117 to 119 °C
1  CC(=O)c1c(-c2ccccc2)oc(-c2ccncc2)c1C [Example 3]    108 to 110 °C
2  NC(=O)CCc1cc(-c2ccncc2)sc1-c1ccncc1 [Example 70]  196 to 196.5 °C
3  CC(=O)c1cc(-c2ccncc2)sc1N1CCN(C)CC1 [Example 38]    115 to 117 °C
4  CC(=O)c1c(C)sc(-c2ccncc2)c1C [Example 18]      80 to 81 °C

Alright, here's another compound for you.
Which melting point is reported for this compound? O=C1CCCc2c(Cl)sc(-c3ccncc3)c21 [Example 45] 93 to 95 °C
